Source of measurements: patent US8835472B2

Biological target: human ACC2 (Homo sapiens (Human))
// returns f unless IC50 is strictly below 500 nM, in which case t

Input: Does the reported IC50 of the following molecule sit strictly below 500 nM? COc1ccc(C#Cc2ccc(C(C)NC(C)=O)cc2)cc1 (centres unmarked)
Output: f

Input: Does the reported IC50 of the following molecule sit strictly below 500 nM? CC(Cc1ccc(C#Cc2ccc(C(C)C)cc2)cc1)NC(=O)C1CC1 (centres unmarked)
Output: f

Input: Does the reported IC50 of the following molecule sit strictly below 500 nM? CC(=O)NC(C)c1ccc(C#Cc2ccc(OC(C)C)nc2)cc1 (centres unmarked)
Output: f

Input: Does the reported IC50 of the following molecule sit strictly below 500 nM? CCCCC(=O)NC(C)Cc1ccc(C#Cc2ccc(OCC)cc2)cc1 (centres unmarked)
Output: f

Below: the item to evaluate.
Input: Does the reported IC50 of the following molecule sit strictly below 500 nM? CC(=O)NCC(C)c1ccc(C#Cc2cnc(OC3CCC3)nc2)cc1 (centres unmarked)
Output: t

====

Quick reference: log10 IC50 of the listed items.
Target: human ACC2 (Homo sapiens (Human), UniProt O00763)
Sequence (O00763 129-2458): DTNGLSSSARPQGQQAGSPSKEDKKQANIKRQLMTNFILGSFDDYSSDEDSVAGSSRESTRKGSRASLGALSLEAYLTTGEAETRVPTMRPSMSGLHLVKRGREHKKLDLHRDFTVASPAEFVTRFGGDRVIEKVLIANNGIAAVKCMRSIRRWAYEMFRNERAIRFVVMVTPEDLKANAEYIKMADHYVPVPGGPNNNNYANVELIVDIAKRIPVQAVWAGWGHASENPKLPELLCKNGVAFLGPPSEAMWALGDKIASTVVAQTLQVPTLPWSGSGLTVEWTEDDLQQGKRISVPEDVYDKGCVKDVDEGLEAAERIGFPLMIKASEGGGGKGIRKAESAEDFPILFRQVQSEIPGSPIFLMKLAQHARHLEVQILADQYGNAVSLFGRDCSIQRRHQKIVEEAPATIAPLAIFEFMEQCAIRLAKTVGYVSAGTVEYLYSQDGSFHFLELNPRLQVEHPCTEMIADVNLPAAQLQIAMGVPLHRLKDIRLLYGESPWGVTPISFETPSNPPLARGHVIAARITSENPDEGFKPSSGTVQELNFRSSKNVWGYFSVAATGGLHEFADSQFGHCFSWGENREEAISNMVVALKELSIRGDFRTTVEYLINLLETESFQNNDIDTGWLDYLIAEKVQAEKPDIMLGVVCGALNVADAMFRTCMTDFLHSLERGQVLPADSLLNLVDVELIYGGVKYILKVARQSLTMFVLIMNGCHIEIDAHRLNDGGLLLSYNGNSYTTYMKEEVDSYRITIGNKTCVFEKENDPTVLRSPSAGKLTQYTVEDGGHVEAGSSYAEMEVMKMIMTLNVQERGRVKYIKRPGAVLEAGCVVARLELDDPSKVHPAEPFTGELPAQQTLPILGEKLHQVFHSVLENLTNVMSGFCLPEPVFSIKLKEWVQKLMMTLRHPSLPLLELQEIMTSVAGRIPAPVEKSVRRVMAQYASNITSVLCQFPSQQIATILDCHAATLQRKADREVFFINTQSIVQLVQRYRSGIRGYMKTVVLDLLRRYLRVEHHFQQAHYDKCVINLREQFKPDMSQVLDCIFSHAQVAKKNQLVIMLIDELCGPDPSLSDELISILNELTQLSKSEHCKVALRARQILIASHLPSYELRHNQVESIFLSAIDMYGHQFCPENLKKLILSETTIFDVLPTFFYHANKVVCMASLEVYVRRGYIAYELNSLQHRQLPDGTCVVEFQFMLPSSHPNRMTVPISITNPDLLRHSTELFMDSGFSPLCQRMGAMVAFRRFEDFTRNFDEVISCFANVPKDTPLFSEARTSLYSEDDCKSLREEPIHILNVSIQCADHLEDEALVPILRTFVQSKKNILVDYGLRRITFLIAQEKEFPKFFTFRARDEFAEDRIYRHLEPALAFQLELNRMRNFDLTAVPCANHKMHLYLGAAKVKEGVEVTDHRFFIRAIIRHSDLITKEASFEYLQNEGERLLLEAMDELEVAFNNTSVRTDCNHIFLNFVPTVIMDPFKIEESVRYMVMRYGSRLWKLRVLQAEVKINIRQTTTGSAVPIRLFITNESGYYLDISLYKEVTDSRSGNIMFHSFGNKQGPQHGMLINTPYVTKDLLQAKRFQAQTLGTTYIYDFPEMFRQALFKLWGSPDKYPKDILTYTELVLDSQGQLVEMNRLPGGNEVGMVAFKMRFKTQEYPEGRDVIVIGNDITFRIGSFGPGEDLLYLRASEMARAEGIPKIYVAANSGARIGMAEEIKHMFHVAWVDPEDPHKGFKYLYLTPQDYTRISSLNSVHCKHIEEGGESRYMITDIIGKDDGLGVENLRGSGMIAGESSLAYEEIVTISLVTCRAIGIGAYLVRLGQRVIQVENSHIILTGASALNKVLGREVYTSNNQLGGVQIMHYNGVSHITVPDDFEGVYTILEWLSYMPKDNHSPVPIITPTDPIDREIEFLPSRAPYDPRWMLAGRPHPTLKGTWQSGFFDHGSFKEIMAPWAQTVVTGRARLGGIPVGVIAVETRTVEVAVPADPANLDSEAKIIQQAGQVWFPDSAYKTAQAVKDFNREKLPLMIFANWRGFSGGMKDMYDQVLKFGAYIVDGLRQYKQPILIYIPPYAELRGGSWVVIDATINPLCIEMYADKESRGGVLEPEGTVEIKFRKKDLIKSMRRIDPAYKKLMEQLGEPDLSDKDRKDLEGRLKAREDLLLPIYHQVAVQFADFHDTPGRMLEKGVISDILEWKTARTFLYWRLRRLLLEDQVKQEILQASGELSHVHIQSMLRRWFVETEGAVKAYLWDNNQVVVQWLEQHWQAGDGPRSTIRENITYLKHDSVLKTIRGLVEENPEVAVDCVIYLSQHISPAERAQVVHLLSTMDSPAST
Assay: ACC2 assay, spectrophotometric 384 well assay (NADH-linked, coupled lactate dehydrogenase/pyruvate kinase reaction)
Type: biochemical
Conditions: hACC2 construct lacking the 128 N-terminal amino acids; 25° C., 340 nm over 15 minutes
Scale: log10; quantity: IC50; unit before log: µM

Input: Return reported log10 IC50; argument: CC(Cc1ccc(C#Cc2ccc(C3CC3)cn2)cc1)NC(=O)C1CC1 (centres unmarked) [Example 2.67]
Output: 0.86

Input: Return reported log10 IC50; argument: CCOc1ccc(C#Cc2ccc(CC(C)NC(=O)C(C)(C)F)cc2)cc1 (centres unmarked) [Example 4.49]
Output: 0.94

Input: Return reported log10 IC50; argument: CC(=O)NC(C)Cc1ccc(C#Cc2cnc(OCc3ccc(F)cc3)nc2)cc1 (centres unmarked) [Example 12.55]
Output: -0.77

Input: Return reported log10 IC50; argument: CC(=O)NC(C)Cc1ccc(C#Cc2ccc(OC3CNC3)cc2)cc1 (centres unmarked) [Example 9.10]
Output: 1.09

Next:
Input: Return reported log10 IC50; argument: CCOc1ccc(C#Cc2ccc(CC(C)NC(=O)c3cncnc3)cc2)cc1 (centres unmarked) [Example 4.14]
Output: 0.08

====

Target or system UniProt:O00763; recorded quantity IC50.
Write the number in nM without appending the unit.

Below, 8 molecules whose answers are already recorded.
Input: // fetch UniProt:O00763 IC50 for CC(=O)NC(C)Cc1ccc(C#Cc2ccc(OCC3CC3)cc2)cc1 (stereo not drawn)
Output: 80

Input: // fetch UniProt:O00763 IC50 for CC(=O)NC(C)Cc1ccc(C#Cc2ccc(C(=O)N3Cc4ccccc4C3)cc2)cc1 (stereo not drawn)
Output: 1500

Input: // fetch UniProt:O00763 IC50 for CCOc1ccc(C#Cc2ccc(C(C)NC(=O)CO)cc2)cc1 (stereo not drawn)
Output: 3900

Input: // fetch UniProt:O00763 IC50 for CCOc1ccc(C#Cc2ccc(CC(C)NS(C)(=O)=O)cc2)cc1 (stereo not drawn)
Output: 330

Input: // fetch UniProt:O00763 IC50 for CCOc1ccc(C#Cc2ccc(CC(C)NC(=O)C3(C)COC3)cc2)cc1 (stereo not drawn)
Output: 510

Input: // fetch UniProt:O00763 IC50 for CC(=O)NC(C)Cc1ccc(C#Cc2ccnc(N3CCCC(c4ccccc4)C3)n2)cc1 (stereo not drawn)
Output: 400

Input: // fetch UniProt:O00763 IC50 for CC(=O)NC(C)Cc1ccc(C#Cc2cnc(NCc3ccccc3)nc2)cc1 (stereo not drawn)
Output: 100

Input: // fetch UniProt:O00763 IC50 for `CC(=O)N[C@@H](C)c1ccc(C#Cc2cnc(OCc3ccccc3)nc2)cc1`
Output: 540

# context switch: different molecule, same IC50
Input: // fetch UniProt:O00763 IC50 for CC(=O)NC(C)Cc1ccc(C#Cc2ccc(N(C)C)cc2)cc1 (stereo not drawn)
Output: 1500
